These data points were gathered from patent US11566022B2.

// values below are reported remaining activity at up to 25 µM
- ASSAY SYSTEM: HiBit-WIZ fusion protein (Homo sapiens, UniProt O95785+Q96SW2)
- Sequence (O95785 whole entry, the tested form may be a part): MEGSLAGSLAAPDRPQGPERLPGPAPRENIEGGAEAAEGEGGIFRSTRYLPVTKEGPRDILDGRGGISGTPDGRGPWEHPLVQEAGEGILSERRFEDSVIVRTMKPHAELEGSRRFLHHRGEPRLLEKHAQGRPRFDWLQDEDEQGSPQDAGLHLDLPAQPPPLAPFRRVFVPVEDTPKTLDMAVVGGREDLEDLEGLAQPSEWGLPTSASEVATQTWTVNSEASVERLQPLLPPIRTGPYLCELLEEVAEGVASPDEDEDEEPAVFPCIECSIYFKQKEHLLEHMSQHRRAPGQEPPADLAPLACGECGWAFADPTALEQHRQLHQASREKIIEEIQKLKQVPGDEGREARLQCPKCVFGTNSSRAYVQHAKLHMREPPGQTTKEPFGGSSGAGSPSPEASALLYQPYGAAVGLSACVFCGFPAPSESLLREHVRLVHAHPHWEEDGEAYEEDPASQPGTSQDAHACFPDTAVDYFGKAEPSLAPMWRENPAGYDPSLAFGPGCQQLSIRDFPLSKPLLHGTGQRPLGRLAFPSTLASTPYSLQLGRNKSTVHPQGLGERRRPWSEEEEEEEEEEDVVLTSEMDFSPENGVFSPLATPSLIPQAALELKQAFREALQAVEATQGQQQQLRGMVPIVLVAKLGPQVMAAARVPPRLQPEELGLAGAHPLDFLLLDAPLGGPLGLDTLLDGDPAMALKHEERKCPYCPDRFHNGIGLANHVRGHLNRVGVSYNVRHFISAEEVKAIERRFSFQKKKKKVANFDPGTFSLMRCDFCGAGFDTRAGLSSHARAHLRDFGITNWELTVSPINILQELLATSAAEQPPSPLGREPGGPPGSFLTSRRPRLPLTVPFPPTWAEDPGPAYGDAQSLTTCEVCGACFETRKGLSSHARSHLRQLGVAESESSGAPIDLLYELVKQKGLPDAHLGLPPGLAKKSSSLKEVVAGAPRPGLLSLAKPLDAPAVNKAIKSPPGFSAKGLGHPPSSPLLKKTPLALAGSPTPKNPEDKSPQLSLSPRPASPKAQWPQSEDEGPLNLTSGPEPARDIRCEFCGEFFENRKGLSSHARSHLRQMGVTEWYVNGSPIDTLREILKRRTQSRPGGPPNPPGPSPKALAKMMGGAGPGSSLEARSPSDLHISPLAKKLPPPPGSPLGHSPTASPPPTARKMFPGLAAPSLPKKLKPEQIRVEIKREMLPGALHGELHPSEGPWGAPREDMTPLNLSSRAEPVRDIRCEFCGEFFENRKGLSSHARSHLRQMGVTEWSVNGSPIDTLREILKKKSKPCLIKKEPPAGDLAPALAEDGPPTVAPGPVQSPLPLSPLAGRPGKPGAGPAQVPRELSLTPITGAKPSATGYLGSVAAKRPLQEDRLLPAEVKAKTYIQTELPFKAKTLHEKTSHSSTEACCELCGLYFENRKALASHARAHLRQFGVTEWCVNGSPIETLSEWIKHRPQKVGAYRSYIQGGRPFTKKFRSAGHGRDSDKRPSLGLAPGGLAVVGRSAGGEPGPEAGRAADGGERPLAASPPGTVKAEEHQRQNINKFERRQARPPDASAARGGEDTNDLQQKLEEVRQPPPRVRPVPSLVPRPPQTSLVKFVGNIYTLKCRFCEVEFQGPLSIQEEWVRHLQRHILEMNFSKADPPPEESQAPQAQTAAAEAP
- Sequence (Q96SW2 whole entry, the tested form may be a part): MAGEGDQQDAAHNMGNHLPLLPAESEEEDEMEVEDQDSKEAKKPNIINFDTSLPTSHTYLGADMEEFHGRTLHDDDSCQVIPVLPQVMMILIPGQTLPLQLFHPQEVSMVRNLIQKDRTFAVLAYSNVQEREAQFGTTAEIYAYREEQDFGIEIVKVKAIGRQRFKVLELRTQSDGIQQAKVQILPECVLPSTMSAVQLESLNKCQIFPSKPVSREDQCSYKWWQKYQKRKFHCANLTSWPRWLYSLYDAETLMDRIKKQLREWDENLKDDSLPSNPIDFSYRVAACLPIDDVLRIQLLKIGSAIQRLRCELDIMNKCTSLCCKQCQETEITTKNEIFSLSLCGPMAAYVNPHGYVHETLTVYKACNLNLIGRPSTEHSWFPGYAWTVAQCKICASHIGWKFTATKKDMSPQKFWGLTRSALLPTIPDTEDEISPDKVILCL
- Sequence (Q16531 whole entry partner, the tested form may be a part): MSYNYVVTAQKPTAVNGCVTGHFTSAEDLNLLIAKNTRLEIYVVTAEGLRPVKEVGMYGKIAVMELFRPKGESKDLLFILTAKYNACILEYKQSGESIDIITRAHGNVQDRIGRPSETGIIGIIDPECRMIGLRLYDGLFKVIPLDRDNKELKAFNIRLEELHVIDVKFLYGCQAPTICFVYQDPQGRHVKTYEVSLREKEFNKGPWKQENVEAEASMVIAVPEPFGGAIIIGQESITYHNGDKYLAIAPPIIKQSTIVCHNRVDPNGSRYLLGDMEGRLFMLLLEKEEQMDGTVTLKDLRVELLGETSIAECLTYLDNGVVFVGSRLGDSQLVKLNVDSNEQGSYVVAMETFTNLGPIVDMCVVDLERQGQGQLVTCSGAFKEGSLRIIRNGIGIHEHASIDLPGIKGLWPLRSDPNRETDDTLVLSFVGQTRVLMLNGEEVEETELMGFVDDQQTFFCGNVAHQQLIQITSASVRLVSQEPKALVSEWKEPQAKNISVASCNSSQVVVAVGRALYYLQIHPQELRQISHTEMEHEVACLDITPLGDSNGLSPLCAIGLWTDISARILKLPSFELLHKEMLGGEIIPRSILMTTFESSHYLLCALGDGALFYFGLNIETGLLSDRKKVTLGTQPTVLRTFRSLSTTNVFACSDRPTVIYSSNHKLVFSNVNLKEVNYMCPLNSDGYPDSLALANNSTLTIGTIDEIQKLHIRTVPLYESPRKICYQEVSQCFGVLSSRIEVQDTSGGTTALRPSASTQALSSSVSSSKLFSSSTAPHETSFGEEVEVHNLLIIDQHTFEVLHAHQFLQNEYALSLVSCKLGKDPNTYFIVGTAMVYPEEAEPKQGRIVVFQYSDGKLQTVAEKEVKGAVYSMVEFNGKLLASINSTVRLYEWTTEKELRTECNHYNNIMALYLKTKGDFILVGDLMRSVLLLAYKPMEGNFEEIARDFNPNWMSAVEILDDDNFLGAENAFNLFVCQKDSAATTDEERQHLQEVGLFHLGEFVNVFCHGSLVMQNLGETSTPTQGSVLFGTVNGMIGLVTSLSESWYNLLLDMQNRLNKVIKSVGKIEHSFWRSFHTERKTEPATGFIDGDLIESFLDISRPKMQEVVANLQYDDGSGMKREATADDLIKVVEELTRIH
- METHOD DESCRIPTION: Quantification of WIZ protein levels in HiBit tag fusion protein assay (WIZ HiBit assay in 293T cells)
- Format: cell-based
- CONDITION INFO: HEK-293T, DMSO-normalized, curve-fitted percentage of WIZ-HiBit remaining at 25 uM; 293T cells; read-out: WIZ Amax
Note to self: number, then unit, no commentary.

Reference set, count: 5
> print(dat)
                                   molecule  result
1  O=C1CCC(N2Cc3cc(OC[C@@H]4CCCCN4C(=O)c4cnc(N5CCCCC5)s4)ccc3C2=O)C(=O)N1 (stereo partly drawn) [Compound I-72fi]   29.8%
2  O=C1CCC(N2Cc3cc(OC[C@H]4CCCCN4CC4CC4)ccc3C2=O)C(=O)N1 (stereo partly drawn) [Compound I-214]   17.1%
3  COC(=O)[C@@H]1CC[C@H](CN2CCCC[C@H]2COc2ccc3c(c2)CN(C2CCC(=O)NC2=O)C3=O)C1 (stereo partly drawn) [Compound I-50cz]   50.2%
4  O=C1CCC(N2Cc3cc(OC[C@H]4CCCCN4Cc4ccc(N5CCOCC5)cc4)ccc3C2=O)C(=O)N1 (stereo partly drawn) [Compound I-50dx]      2%
5  O=C1CCC(N2Cc3cc(OC[C@@H]4CCCCN4Cc4ccc(O)c(Cl)c4)ccc3C2=O)C(=O)N1 (stereo partly drawn) [Compound I-50b]     17%

Returns the measured remaining activity at up to 25 µM for the input molecule. Input: COc1cc(CN2CCCC[C@H]2COc2ccc3c(c2)CN(C2CCC(=O)NC2=O)C3=O)ccc1C (stereo partly drawn) [Compound I-50s] 15.7%

Subsequent entry: O=C1CCC(N2Cc3cc(OC[C@@H]4CCCCN4C(=O)CN4CCCCC4)ccc3C2=O)C(=O)N1 (stereo partly drawn) [Compound I-72jq] 88.3%

Queued: CCN1CCOC[C@H]1COc1ccc2c(c1)CN(C1CCC(=O)NC1=O)C2=O (stereo partly drawn) [Compound I-64] 78.5%

Same thing, different molecule: O=C1CCC(N2Cc3cc(OC[C@H]4CCCCN4Cc4ccc(O)cc4)ccc3C2=O)C(=O)N1 (stereo partly drawn) [Compound I-148] 5.51%

Same question, O=C1CCC(N2Cc3cc(OC[C@@H]4CCCCN4C(=O)c4csc(-c5ccccc5)n4)ccc3C2=O)C(=O)N1 (stereo partly drawn) [Compound I-72du] this time 76.4%

Subsequent entry: O=C1CCC(N2Cc3cc(OC[C@@H]4CCCCN4C(=O)Cc4cc[nH]n4)ccc3C2=O)C(=O)N1 (stereo partly drawn) [Compound I-72af] 92.3%

Another molecule to check: COC(=O)c1ccc(Oc2ccc(CN3CCCC[C@H]3COc3ccc4c(c3)CN(C3CCC(=O)NC3=O)C4=O)cc2)cc1 (stereo partly drawn) [Compound I-50g] 11.1%

// query: O=C1CCC(N2Cc3cc(OC[C@@H]4CCCCN4C(=O)c4ccnnc4)ccc3C2=O)C(=O)N1 (stereo partly drawn) [Compound I-72kc] 90.6%

Same for O=C1CCC(N2Cc3cc(OC[C@@H]4CCCCN4Cc4cccc(Cn5cccn5)c4)ccc3C2=O)C(=O)N1 (stereo partly drawn) [Compound I-50bz] 14.8%

Here is the next molecule: O=C1CCC(N2Cc3cc(OC[C@H]4CCCCN4Cc4ccnc(N5CCOCC5)c4)ccc3C2=O)C(=O)N1 (stereo partly drawn) [Compound I-50dr] 14.5%

* * *

- ASSAY SYSTEM: HiBit-WIZ fusion protein (Homo sapiens, UniProt O95785+Q96SW2)
- METHOD DESCRIPTION: Quantification of WIZ protein levels in HiBit tag fusion protein assay (WIZ HiBit assay in 293T cells)
- Format: cell-based
- CONDITION INFO: HEK-293T, DMSO-normalized, curve-fitted percentage of WIZ-HiBit remaining at 25 uM; 293T cells; read-out: WIZ Amax
Exam item: assign yes (1) to entries whose remaining activity at up to 25 µM is below 90% and no (0) to entries at or above 90%. Note that a value of exactly 90% receives no (0).

Study these solved cases before continuing.
> print(dat)
                                   molecule  discrete.label
1  CCN1[C@@H]2CC[C@@H](C2)[C@H]1COc1ccc2c(c1)CN(C1CCC(=O)NC1=O)C2=O (stereo partly shown)         yes (1)
2  O=C1CCC(N2Cc3cc(OC[C@@H]4CCCCN4Cc4ccccc4Cn4cncn4)ccc3C2=O)C(=O)N1 (stereo partly shown) [Compound I-50q]          no (0)
3  O=C1CCC(N2Cc3cc(OC[C@@H]4CCCCN4C(=O)[C@@H]4CCC(=O)N4Cc4ccccc4)ccc3C2=O)C(=O)N1 (stereo partly shown) [Compound I-72ed]          no (0)
4  CCN1CCC(c2ccccc2CN2CCCC[C@@H]2COc2ccc3c(c2)CN(C2CCC(=O)NC2=O)C3=O)CC1 (stereo partly shown)         yes (1)
5  N#Cc1cccc(Cn2cccc(CN3CCCC[C@@H]3COc3ccc4c(c3)CN(C3CCC(=O)NC3=O)C4=O)c2=O)c1 (stereo partly shown) [Compound I-50cp]         yes (1)

# check: remaining activity at up to 25 µM < 90% for O=C1CCC(N2Cc3cc(OC[C@H]4CCCCN4Cc4ccccc4N4CCOCC4)ccc3C2=O)C(=O)N1 (stereo partly shown) yes (1)

Do the same for COc1ccc(C(=O)N2CCCC[C@H]2COc2ccc3c(c2)CN(C2CCC(=O)NC2=O)C3=O)nn1 (stereo partly shown) [Compound I-72gm] please no (0)

* * *

- ASSAY SYSTEM: HiBit-WIZ fusion protein (Homo sapiens, UniProt O95785+Q96SW2)
- METHOD DESCRIPTION: Quantification of WIZ protein levels in HiBit tag fusion protein assay (WIZ HiBit assay in 293T cells)
- Type: cell-based
- CONDITION INFO: WIZ HiBit assay in 293T cells; 10-point, 5-fold dose response, highest concentration 25 μM, about 18 hours; read-out: WIZ AC50
MEASURE NAME: log10 of DC50 (log10 of the value in µM)
Please keep in mind that the values are log10 of DC50 expressed in µM.

> print(dat)
                                   compound                              assay.system   measure.name  recorded.number
1  O=C1CCC(N2Cc3cc(OC[C@@H]4CCCCN4Cc4ccc(N5CCCC5=O)cc4)ccc3C2=O)C(=O)N1 (stereo partly shown) [Compound I-50o]  HiBit-WIZ fusion protein (Homo sapiens, UniProt O95785+Q96SW2)  log10 of DC50             1.10
2  Cc1cc(-n2c(C)cc(C(=O)N3CCCC[C@H]3COc3ccc4c(c3)CN(C3CCC(=O)NC3=O)C4=O)c2C)no1 (stereo partly shown) [Compound I-72iu]  HiBit-WIZ fusion protein (Homo sapiens, UniProt O95785+Q96SW2)  log10 of DC50             0.30
3  O=C1CCC(N2Cc3cc(OC[C@H]4CCCCN4Cc4ccc5[nH]cnc5c4)ccc3C2=O)C(=O)N1 (stereo partly shown)  HiBit-WIZ fusion protein (Homo sapiens, UniProt O95785+Q96SW2)  log10 of DC50            -0.31

Given O=C1CCC(N2Cc3cc(OC[C@H]4CCCCN4Cc4ccc(N5CCN(C6CCOCC6)CC5)cc4)ccc3C2=O)C(=O)N1 (stereo partly shown) , state its recorded log10 of DC50. 0.18

Let us now turn to O=C1CCC(N2Cc3cc(OC[C@H]4CCCCN4Cc4ccc(N5CCCCC5)cc4)ccc3C2=O)C(=O)N1 (stereo partly shown) -3.43

Further, for O=C1CCC(N2Cc3cc(OC[C@H]4CCCCN4Cc4ccc(C5CCN(CC6CCOCC6)CC5)cc4)ccc3C2=O)C(=O)N1 (stereo partly shown) ? -1.25

Now try COc1cc2[nH]nc(CN3CCCC[C@@H]3COc3ccc4c(c3)CN(C3CCC(=O)NC3=O)C4=O)c2cc1OCc1ccccc1 (stereo partly shown) [Compound I-50ev] . -1.29

Now the same for O=C1CCC(N2Cc3cc(OC[C@H]4CCCCN4CC4CC5(COC5)C4)ccc3C2=O)C(=O)N1 (stereo partly shown) -0.27

Next compound up: COc1ccc(CN2CCCC[C@@H]2COc2ccc3c(c2)CN(C2CCC(=O)NC2=O)C3=O)cc1C#N (stereo partly shown) -2.38

Now try Cc1nc[nH]c1CN1CCCC[C@@H]1COc1ccc2c(c1)CN(C1CCC(=O)NC1=O)C2=O (stereo partly shown) [Compound I-50cs] . 0.64

Ok, now Cc1c(-c2ccccc2)n[nH]c1C(=O)N1CCCC[C@H]1COc1ccc2c(c1)CN(C1CCC(=O)NC1=O)C2=O (stereo partly shown) [Compound I-72by] 1.30

One more compound: Cn1nnc2cc(CN3CCCC[C@@H]3COc3ccc4c(c3)CN(C3CCC(=O)NC3=O)C4=O)ccc21 (stereo partly shown) [Compound I-50y] -0.75

What would you report for CC#CCCOc1ccc(C(=O)N2CCCC[C@H]2COc2ccc3c(c2)CN(C2CCC(=O)NC2=O)C3=O)cc1 (stereo partly shown) [Compound I-72ew] ? 1.16

Next compound: O=C1CCC(N2Cc3cc(OC[C@H]4CCCCN4Cc4cccn5ccnc45)ccc3C2=O)C(=O)N1 (stereo partly shown) [Compound I-50ca] -0.62
